Biological target: human Adenosine A1 receptor (Homo sapiens, UniProt P30542)
Sequence (P30542 1-326): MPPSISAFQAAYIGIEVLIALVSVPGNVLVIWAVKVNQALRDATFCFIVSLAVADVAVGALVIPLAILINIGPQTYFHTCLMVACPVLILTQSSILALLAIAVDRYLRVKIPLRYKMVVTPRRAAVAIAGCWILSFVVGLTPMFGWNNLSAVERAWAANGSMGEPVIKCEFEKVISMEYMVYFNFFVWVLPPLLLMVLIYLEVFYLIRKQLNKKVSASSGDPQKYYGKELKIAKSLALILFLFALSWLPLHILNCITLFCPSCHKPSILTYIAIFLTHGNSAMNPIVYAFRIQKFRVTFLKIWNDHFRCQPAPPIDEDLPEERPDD
Structures can show the parent of a compound that is named as a salt.
Catalogue of Ki readings, one per entry.
Dear colleague, please return just the value in nM, with no unit written.

Example molecules with recorded Ki:
{"columns": ["molecule", "Ki, nM"],
 "data": [
  ["N#Cc1c(-c2ccco2)nn2ccc(NC[C@H]3CCCN3)nc12 [Example 80, hydrochloride]", 988],
  ["N#Cc1c(-c2ccco2)nn2ccc(NC[C@@H]3CNCCO3)nc12 [Example 42, hydrochloride]", 313],
  ["CCn1nccc1-c1c(-c2cccc(C#N)c2)nn2ccc(N3CCS(=N)(=O)CC3)nc12 [Example 33.7]", 1800],
  ["Cc1cc(-c2c(-c3cccc(C#N)c3)nn3ccc(C(=O)N[C@H](C)CO)nc23)cc(Cl)n1 [Example 6.6]", 390],
  ["Cc1cc(-c2c(-c3cccc(C#N)c3)nn3ccc(C(=O)NCCC(C)(C)N)nc23)cc(C)n1 [Example 96]", 143]
]}

Give the reported Ki for Cc1cc(-c2c(-c3cccc(C#N)c3)nn3ccc(NC4CCN(C)C(=O)C4)nc23)cc(C)n1 (centres unmarked) [Example 105.2] (system: human Adenosine A1 receptor (Homo sapiens, UniProt P30542)). 35

How about this molecule: O=C(O)c1c(-c2ccco2)nn2ccc(NCc3ccccc3)nc12 [Example 76] 2540

How about this molecule: CCN1CCC(Nc2ccn3nc(-c4cccc(C#N)c4)c(-c4cc(C)nc(Cl)c4)c3n2)CC1 [Example 2.4] 53
